Recorded values, source PubChem BioAssay (NCATS).

Assay: Quantitative High-Throughput drug screen in 47 multiple myeloma cell lines against the NCATS MIPE library collection: LP1_DSMZ cell viability assay (AID 1918982); note: nearly all actives have a fitted effect of over 35% in size
Conditions: LP1 myeloma viability, CellTiter-Glo ATP luminescence, 48 h; series mostly up to 45.8 µM
Records with an inconclusive call do not appear. The source made the active and inactive calls. Calls come from the whole dose curve; as a rule, active = well fitted cell-killing curve with a large enough effect; inconclusive = small, poorly fitted or top-dose-only effect, or effect the other way; inactive = no such curve, though single readings can be large or run the other way.
Possible outcomes: t for active, f for inactive

compound	qualitative.label
CO[C@H]1C[C@@H]2CC[C@@H](C)[C@@](O)(O2)C(=O)C(=O)N2CCCC[C@@H]2C(=O)O[C@H]([C@H](C)C[C@@H]2CC[C@H](OCCO)[C@H](OC)C2)CC(=O)[C@H](C)C=C(C)[C@@H](O)[C@@H](OC)C(=O)[C@H](C)C[C@H](C)C=CC=CC=C1C	f
CO[C@H]1C(=O)[C@]2(C)[C@@H](OC)C[C@H]3OC[C@@]3(OC(C)=O)[C@H]2[C@H](OC(=O)c2ccccc2)[C@]2(O)C[C@H](OC(=O)[C@H](O)[C@@H](NC(=O)OC(C)(C)C)c3ccccc3)C(C)=C1C2(C)C	f
O=C(CCc1ccc(O)cc1)c1c(O)cc(O)cc1O[C@@H]1O[C@H](CO)[C@H](O)[C@H](O)[C@H]1O	f
Cc1nc(N)sc1-c1ccnc(Nc2ccc(N3CCOCC3)cc2)n1	t
CC(C)n1cnc2c(NCCCCCCNC(=O)OC(C)(C)C)nc(NCCO)nc21	t
C[C@]12CC[C@@H]3c4ccc(O)cc4C[C@@H](CCCCCCCCCS(=O)CCCC(F)(F)C(F)(F)F)[C@H]3[C@H]1CC[C@H]2O (stereo partly drawn)	t
CC(C)C[C@H](CC(=O)O)C(=O)N[C@@H](Cc1c[nH]c2ccccc12)C(=O)N[C@@H](C)c1ccccc1	f
CN1[C@@H]2CCC[C@@H]1CC(NC(=O)c1nn(C)c3ccccc13)C2 (stereo partly drawn)	f
COC(=O)N[C@H](C(=O)N1CCC[C@@H]1c1ncc(-c2ccc(-c3ccc(-c4cnc([C@@H]5CCCN5C(=O)[C@@H](NC(=O)OC)C(C)C)[nH]4)cc3)cc2)[nH]1)C(C)C	t
CC1(C)O[C@H]2C[C@@H]3[C@H]4CCC5=CC(=O)C=C[C@]5(C)[C@@]4(F)[C@@H](O)C[C@]3(C)[C@]2(C(=O)CO)O1	t
C[C@@H]1CCN(C(=O)CC#N)C[C@H]1N(C)c1ncnc2[nH]ccc12	f
CCC(=O)O[C@]1(C(=O)CO)CC[C@H]2[C@@H]3CCC4=CC(=O)CC[C@]4(C)[C@@H]3CC[C@@]21C	t
CO[C@H]1C[C@@H]2CC[C@@H](C)[C@@](O)(O2)C(=O)C(=O)N2CCCC[C@@H]2C(=O)O[C@H]([C@H](C)C[C@@H]2CC[C@H](OP(C)(C)=O)[C@H](OC)C2)CC(=O)[C@H](C)C=C(C)[C@@H](O)[C@@H](OC)C(=O)[C@H](C)C[C@H](C)C=CC=CC=C1C	f

---

Assay: Stat Signaling Pathway (AID 446);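 note: ME-180 cervical cancer cells given 40 pM IL-6 alongside compound; SIE-controlled beta-lactamase reporter measured as 460/530 nm FRET emission ratio; % is set by controls: 0 for no effect and ±100 for the full control effect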
Settings: ME-180 (cervical carcinoma) SIE beta-lactamase reporter, IL-6 stimulated, 5 h; at 38 µM (top of the series)
Records with an inconclusive call do not appear.
Reported activity, negative = inhibition values for the following compounds.
recorded.endpoint: activity, negative = inhibition (%)

> print(dat)
                               given.smiles  units.of.measure  value.reported
1     CCCCC1C(=O)N(c2ccccc2)N(c2ccccc2)C1=O                 %           -22.4
2       CC(=O)CCCCn1c(=O)c2c(ncn2C)n(C)c1=O                 %            9.49
3  CC/C(=C(\c1ccccc1)c1ccc(OCCN(C)C)cc1)c1ccccc1                 %            2.62
4                        C[N+](C)(C)CC(=O)O                 %           -8.86
5  CC(=O)c1ccc(S(=O)(=O)NC(=O)NC2CCCCC2)cc1                 %           -26.2
6         O=C1NC(=O)C(c2ccccc2)(c2ccccc2)N1                 %           -3.08
7                CCN(CC)CCOC(=O)c1ccc(N)cc1                 %           -13.6
8      Clc1ccc(Cn2c(CN3CCCC3)nc3ccccc32)cc1                 %           0.465
